Hey, just so you know, these numbers are from patent US9005614B2.

Molecular target: T1, human PRLR ECD (Homo sapiens, UniProt P16471)
T1 construct: His6 (C); made in house; host or cells: Tn5 insect cells, baculovirus
T1 sequence (P16471 25-234): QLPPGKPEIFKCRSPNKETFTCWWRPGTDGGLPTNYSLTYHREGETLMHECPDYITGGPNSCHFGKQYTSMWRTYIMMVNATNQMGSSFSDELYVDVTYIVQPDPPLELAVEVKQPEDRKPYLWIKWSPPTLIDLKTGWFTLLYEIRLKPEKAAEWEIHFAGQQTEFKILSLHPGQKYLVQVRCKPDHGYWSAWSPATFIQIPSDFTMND
Assay: Biacore kinetic titration, antibody captured on Protein A/G
Type: binding
Conditions: Table 9, Human PRLR ECD; unit not given
Each entry below lists one item and its recorded ka value.
Response field accepts a number only; no unit should be typed.

| Molecule | ka |
| --- | --- |
| he.06.642-1: HUMAN-ENGINEERED antibody from XHA.06.642; variable regions SEQ ID NO: 88 and SEQ ID NO: 89 by order of listing (antibody, V domains shown) VH: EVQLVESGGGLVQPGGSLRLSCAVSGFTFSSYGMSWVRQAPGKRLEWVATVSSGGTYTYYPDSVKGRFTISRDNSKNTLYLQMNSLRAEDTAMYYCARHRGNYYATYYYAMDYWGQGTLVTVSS VL: DIVLTQSPDSLAVSLGERATINCKASKSVSTSGYTYMHWYQQKPGQPPKLLIYLASNRESGVPDRFSGSGSGTDFTLTISPVQAEDVATYYCQHSGELPPSFGQGTKLEIK | 1.7E+05 |
| he.06.275-2: HUMAN-ENGINEERED antibody from XHA.06.275; variable regions SEQ ID NO: 91 and SEQ ID NO: 94 by order of listing (antibody, V domains shown) VH: QVQLQESGPGLVKPSQTLSLTCTVSGYSITSDYAWNWIRQFPGKGLEWMGYISYSGSTSYNPSLKSRITISRDTSKNQFSLQLNSVTAADTAVYFCARDYGYVFDYWGQGTTLTVSS VL: DVQITQSPSSLSASPGDRITLTCRASKNIYKYLAWYQEKPGKTNNLLIYSGSTLHSGIPSRFSGSGSGTDFTLTISSLQPEDFAMYYCQQHNDYPYTFGQGTKLEIK | 6.0E+05 |
| he.06.275-4: HUMAN-ENGINEERED antibody from XHA.06.275; variable regions SEQ ID NO: 92 and SEQ ID NO: 94 by order of listing (antibody, V domains shown) VH: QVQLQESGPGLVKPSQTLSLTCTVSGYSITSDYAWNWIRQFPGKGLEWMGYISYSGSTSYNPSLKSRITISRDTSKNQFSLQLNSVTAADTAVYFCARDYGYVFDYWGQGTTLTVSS VL: DVQITQSPSSLSASPGDRITLTCRASKNIYKYLAWYQEKPGKANKLLIYSGSTLHSGIPSRFSGSGSGTDFTLTISSLQPEDFAMYYCQQHNDYPYTFGQGTKLEIK | 6.2E+05 |

Moving on to the next molecule.
Input he.06.642-2: HUMAN-ENGINEERED antibody from XHA.06.642; variable regions SEQ ID NO: 88 and SEQ ID NO: 90 by order of listing (antibody, V domains shown) VH: EVQLVESGGGLVQPGGSLRLSCAVSGFTFSSYGMSWVRQAPGKGLEWVATVSSGGTYTYYPDSVKGRFTISRDNSKNTLYLQMNSLRAEDTAVYYCARHRGNYYATYYYAMDYWGQGTLVTVSS VL: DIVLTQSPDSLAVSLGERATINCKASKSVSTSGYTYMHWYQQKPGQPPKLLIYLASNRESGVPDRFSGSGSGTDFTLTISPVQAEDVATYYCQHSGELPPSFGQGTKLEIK . Output ka: 1.7E+05
